CONDITION: buffer; pH 7.4; 200.0 µM
PROPERTY: log10(solubility kinetic) (log10 of the value in µg/mL)
Short version: log10 scale, solubility kinetic, µg/mL.

What value of log10(solubility kinetic) has been recorded for this entry: C=CCN=C1S/C(=C\c2ccc(N(C)C)cc2)C(=O)N1CC=C
0.74

Query: log10(solubility kinetic); subject: Cc1sc2nc(COC(=O)c3ccc(O)cc3)[nH]c(=O)c2c1C
0.90

Given the compound Cc1cccc(C(=O)OCC(=O)NC(C)C2CC3CCC2C3)c1O (stereo not drawn) , what is its reported log10(solubility kinetic)?
0.61

Could you share which log10(solubility kinetic) value was measured for N#Cc1c2c(c(NCCOCCO)n3c1nc1ccccc13)CCCC2 ?
1.43

Name the reported log10(solubility kinetic) value associated with the compound CCc1ccc(NC(=O)COC(=O)CC2CCCC2)cc1
1.41

Record request: log10(solubility kinetic) value, item CN(C(=O)c1cc(-c2ccc3c(c2)OCO3)on1)c1ccccc1
0.83

Quick one: log10(solubility kinetic) of COc1ccccc1NS(=O)(=O)c1ccc(C(=O)N2CCN(c3ccccn3)CC2)cc1 ?
1.73

Field request: log10(solubility kinetic) | item: COc1ccc(C(=O)n2cnc3ccccc32)cc1[N+](=O)[O-]
1.47

Given the compound Cc1c(C)c(C)c2[nH]c(=S)[nH]c2c1C , what is its reported log10(solubility kinetic)?
-0.40

# lookup: log10(solubility kinetic) of Cc1cc(C)cc(NC(=O)N2CCC(NC(=O)c3ccco3)CC2)c1
1.65

Reported log10(solubility kinetic), compound O=C(Nc1cccc([N+](=O)[O-])c1)NC1CCCCCCC1 : ____
0.58

Given CC(=O)c1c(C)[nH]c(C(=O)Nc2ccccc2Cl)c1C , state its recorded log10(solubility kinetic).
0.43

Need log10(solubility kinetic), item Cc1noc(C)c1C(=O)OCC(=O)NCc1ccc(Cl)cc1
1.19

So what does the record say about log10(solubility kinetic) for COc1cccc(C(=O)OCC(=O)NCCCc2ccccc2)c1 ?
1.08

What value of measured log10(solubility kinetic) is listed for Cc1cc2ccccn2c1C(=O)c1ccc(C#N)cc1 ?
0.28

Please look up its log10(solubility kinetic): CC(C)(C)c1ccc(OCC(O)CN2CCc3ccccc3C2)cc1.Cl (stereo not drawn)
1.07

If you can, please state the reported log10(solubility kinetic) value of O=[N+]([O-])c1cccnc1N1CCN(c2ccc(F)cc2)CC1 .
1.08

Look at this compound and give its reported log10(solubility kinetic). O=C(Cc1c(F)cccc1Cl)NCCc1c[nH]c2ccccc12
0.68

What log10(solubility kinetic) value was documented for this compound, CCOC(=O)c1sc2ncc([N+](=O)[O-])cc2c1N ?
0.58

Looking for the measured log10(solubility kinetic) of CC(=O)c1ccc(NS(=O)(=O)c2ccc(C(C)(C)C)cc2)cc1 , can you help?
0.23

Please look up its log10(solubility kinetic): O=C(Nc1ccc(CN2CCS(=O)(=O)CC2)cc1)c1ccc(Cl)cc1
0.66

Which log10(solubility kinetic) is reported for this compound? Cc1cc(C)cc(OCC(=O)O/N=C(\N)c2ccccc2Cl)c1
1.12

# query: log10(solubility kinetic) of entry COC(=O)c1ccccc1NC(=O)c1cc(-c2ccco2)on1
-0.22

What log10(solubility kinetic) value was documented for this compound, Cc1cccc(C(=O)Nc2cccc(C(=O)NC3CCCC3)c2)c1 ?
1.37

I would be grateful if you could share the reported log10(solubility kinetic) for O=C1CC(c2ccccc2)CN1C(=O)c1cccnc1 (stereo not drawn) .
1.54

Fill blank: measured log10(solubility kinetic) of the compound Cc1cc(C(=O)NC(C)CCc2ccccc2)ccc1[N+](=O)[O-] (stereo not drawn) is ____.
0.60
